Task for the reader: assign each of the following molecules its reported CC50 at 72 h.
# measurementDescription: Cytotoxicity against mouse J774A1 cells assessed as cell viability after 72 hrs by MTT assay
# Type: cell-based, J774.A1
Give bare numbers, in µM.

molecule: Clc1ccc(COC(Cn2ccnc2)c2ccc(Cl)cc2Cl)c(Cl)c1 (stereo not given) [MICONAZOLE]
experimentalEndpoint: CC50 at 72 h
unitSymbol: µM
number: 9.93
//
molecule: CCCCCCCCCCCCCCCCOP(=O)([O-])OCC[N+](C)(C)C [MILTEFOSINE]
experimentalEndpoint: CC50 at 72 h
unitSymbol: µM
number: 3.23
//
molecule: Clc1ccc(Cl)c(COC(CCn2ccnc2)c2cccs2)c1 (stereo not given)
experimentalEndpoint: CC50 at 72 h
unitSymbol: µM
number: 18
//
molecule: Clc1cccc(COC(CCn2ccnc2)c2cccs2)c1 (stereo not given)
experimentalEndpoint: CC50 at 72 h
unitSymbol: µM
number: 46
//
molecule: Fc1ccc(F)c(COC(CCn2ccnc2)c2ccco2)c1 (stereo not given)
experimentalEndpoint: CC50 at 72 h
unitSymbol: µM
number: 30.9

Here are 6 molecules. What values of CC50 at 72 h were reported for them?
1. Clc1ccc(COC(CCn2ccnc2)c2cccs2)c(Cl)c1 (stereo not given)
2. Clc1ccc(Cl)c(COC(CCn2cncn2)c2ccco2)c1 (stereo not given)
3. Clc1cccc(COC(CCn2ccnc2)c2ccco2)c1 (stereo not given)
4. Clc1cccc(COC(CCn2cncn2)c2ccco2)c1 (stereo not given)
5. Fc1ccc(COC(CCn2ccnc2)c2ccco2)c(F)c1 (stereo not given)
6. Fc1ccc(COC(CCn2ccnc2)c2cccs2)c(F)c1 (stereo not given)

a:
29.7
28.9
60.2
18.6
28.8
34.4

Batch lookup, CC50 at 72 h per entry.
1. Clc1ccc(Cl)c(COC(CCn2ccnc2)c2ccco2)c1 (stereo not given)
2. Clc1cccc(COC(CCn2cncn2)c2cccs2)c1 (stereo not given)
3. Clc1ccc(COC(CCn2ccnc2)c2ccco2)c(Cl)c1 (stereo not given)
4. Fc1ccc(F)c(COC(CCn2ccnc2)c2cccs2)c1 (stereo not given)

a:
[37.6, 15.6, 56.2, 15.1]
